Experimental Target: BTK (Homo sapiens, UniProt Q06187)
Sequence (Q06187 whole entry): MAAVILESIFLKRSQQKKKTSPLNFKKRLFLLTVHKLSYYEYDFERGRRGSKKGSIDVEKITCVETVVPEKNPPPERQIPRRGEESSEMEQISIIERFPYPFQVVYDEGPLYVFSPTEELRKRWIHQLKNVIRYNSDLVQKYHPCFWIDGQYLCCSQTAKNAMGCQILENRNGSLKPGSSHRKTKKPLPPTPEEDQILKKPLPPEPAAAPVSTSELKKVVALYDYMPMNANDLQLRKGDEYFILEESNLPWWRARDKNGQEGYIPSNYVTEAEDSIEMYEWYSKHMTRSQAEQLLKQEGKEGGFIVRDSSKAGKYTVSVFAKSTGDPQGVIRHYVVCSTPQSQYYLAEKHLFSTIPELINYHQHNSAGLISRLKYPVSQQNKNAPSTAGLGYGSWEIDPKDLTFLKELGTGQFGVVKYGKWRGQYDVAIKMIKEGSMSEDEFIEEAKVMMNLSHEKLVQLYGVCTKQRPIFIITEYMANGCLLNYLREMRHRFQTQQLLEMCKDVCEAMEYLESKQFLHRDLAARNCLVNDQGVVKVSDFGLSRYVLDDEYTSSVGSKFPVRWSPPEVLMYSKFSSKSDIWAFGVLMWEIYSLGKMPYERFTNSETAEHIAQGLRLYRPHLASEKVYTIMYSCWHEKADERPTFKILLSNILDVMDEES
Protocol Text: BTK degradation, DC50 and Dmax of Table 1 (cell line not given)
Assay type: cell-based
Parameters: endogenous in cells
Measurement Kind: Dmax

Compound	Measurement Kind	Recorded Measurement
Nc1ncnc2c1c(-c1ccc(Oc3ccccc3)cc1)nn2[C@@H]1CCCN(C(=O)N2CCN(c3ccc4c(c3)CN(C3CCC(=O)NC3=O)C4=O)CC2)C1 (some centres unmarked)	Dmax	> 50%
Nc1ncnc2c1c(-c1ccc(Oc3ccccc3)cc1)nn2[C@@H]1CCCN(C(=O)N2CCC(CCCN3CCC(c4ccc5c(c4)C(=O)N(C4CCC(=O)NC4=O)C5=O)CC3)CC2)C1 (some centres unmarked)	Dmax	> 75%
Nc1ncnc2c1c(-c1ccc(Oc3ccccc3)cc1)nn2[C@@H]1CCCN(C(=O)N2CCN(CCN3CCN(c4ccc5c(c4)C(=O)N(C4CCC(=O)NC4=O)C5=O)CC3)CC2)C1 (some centres unmarked)	Dmax	> 90%
Nc1ncnc2c1c(-c1ccc(Oc3ccccc3)cc1)nn2[C@@H]1CCCN(C2CCN(CCCN3CCN(c4ccc5c(c4)C(=O)N(C4CCC(=O)NC4=O)C5=O)CC3)CC2)C1 (some centres unmarked)	Dmax	> 75%
Nc1ncnc2c1c(-c1ccc(Oc3ccccc3)cc1)nn2C1CCN(CCOCCOCCN2CCN(c3ccc4c(c3)CN(C3CCC(=O)NC3=O)C4=O)CC2)CC1 (centres unmarked)	Dmax	> 90%
Nc1ncnc2c1c(-c1ccc(Oc3ccccc3)cc1)nn2[C@@H]1CCCN(C(=O)N2CCC(CN3CCN(c4ccc5c(c4)CN(C4CCC(=O)NC4=O)C5=O)CC3)CC2)C1 (some centres unmarked)	Dmax	> 90%
Nc1ncnc2c1c(-c1ccc(Oc3ccccc3)cc1)nn2[C@@H]1CCCN(C(=O)N2CCC(CCCN3CCC(c4ccc5c(c4)CN(C4CCC(=O)NC4=O)C5=O)CC3)CC2)C1 (some centres unmarked)	Dmax	> 75%
Nc1ncnc2c1c(-c1ccc(Oc3ccccc3)cc1)nn2[C@@H]1CCCN(CC2CCN(CC3CCN(c4ccc5c(c4)CN(C4CCC(=O)NC4=O)C5=O)CC3)CC2)C1 (some centres unmarked)	Dmax	> 90%
Nc1ncnc2c1c(-c1ccc(Oc3ccccc3)cc1)nn2[C@@H]1CCCN(C2CCN(C(=O)N3CCN(CCCN4CCC(c5ccc6c(c5)C(=O)N(C5CCC(=O)NC5=O)C6=O)CC4)CC3)CC2)C1 (some centres unmarked)	Dmax	> 75%
Nc1ncnc2c1c(-c1ccc(Oc3ccccc3)cc1)nn2[C@@H]1CCCN(C2CCN(CCCN3CCC(c4ccc5c(c4)CN(C4CCC(=O)NC4=O)C5=O)CC3)CC2)C1 (some centres unmarked)	Dmax	> 75%
Nc1ncnc2c1c(-c1ccc(Oc3ccccc3)cc1)nn2C1CCN(CCOCCC2CCN(c3ccc4c(c3)CN(C3CCC(=O)NC3=O)C4=O)CC2)CC1 (centres unmarked)	Dmax	> 90%
Nc1ncnc2c1c(-c1ccc(Oc3ccccc3)cc1)nn2C1CCN(CC2CCN(C(=O)N3CCC(CCN4CCN(c5ccc6c(c5)C(=O)N(C5CCC(=O)NC5=O)C6=O)CC4)CC3)CC2)CC1 (centres unmarked)	Dmax	> 90%
Nc1ncnc2c1c(-c1ccc(Oc3ccccc3)cc1)nn2[C@@H]1CCCN(C(=O)N2CCN(CCC3CCN(c4ccc5c(c4)C(=O)N(C4CCC(=O)NC4=O)C5=O)CC3)CC2)C1 (some centres unmarked)	Dmax	> 90%
Nc1ncnc2c1c(-c1ccc(Oc3ccccc3)cc1)nn2C1CCN(C(=O)N2CCC(CCC3CCN(c4ccc5c(c4)C(=O)N(C4CCC(=O)NC4=O)C5=O)CC3)CC2)CC1 (centres unmarked)	Dmax	> 90%
Nc1ncnc2c1c(-c1ccc(Oc3ccccc3)cc1)nn2[C@@H]1CCCN(C(=O)N2CCN(CCCN3CCC(c4ccc5c(c4)C(=O)N(C4CCC(=O)NC4=O)C5=O)CC3)CC2)C1 (some centres unmarked)	Dmax	> 75%
Nc1ncnc2c1c(-c1ccc(Oc3ccccc3)cc1)nn2[C@@H]1CCCN(C2CCN(C(=O)N3CCC(CCC4CCN(c5ccc6c(c5)CN(C5CCC(=O)NC5=O)C6=O)CC4)CC3)CC2)C1 (some centres unmarked)	Dmax	> 75%
Nc1ncnc2c1c(-c1ccc(Oc3ccccc3)cc1)nn2[C@@H]1CCCN(C2CCN(C(=O)N3CCN(CCCN4CCN(c5ccc6c(c5)C(=O)N(C5CCC(=O)NC5=O)C6=O)CC4)CC3)CC2)C1 (some centres unmarked)	Dmax	> 75%
Nc1ncnc2c1c(-c1ccc(Oc3ccccc3)cc1)nn2C1CCN(C(=O)N2CCN(CCC3CCN(c4ccc5c(c4)CN(C4CCC(=O)NC4=O)C5=O)CC3)CC2)CC1 (centres unmarked)	Dmax	> 90%
Nc1ncnc2c1c(-c1ccc(Oc3ccccc3)cc1)nn2[C@@H]1CCCN(C2CCN(C(=O)N3CCC(CCN4CCN(c5ccc6c(c5)C(=O)N(C5CCC(=O)NC5=O)C6=O)CC4)CC3)CC2)C1 (some centres unmarked)	Dmax	> 75%
Nc1ncnc2c1c(-c1ccc(Oc3ccccc3)cc1)nn2C1CCN(C(=O)N2CCN(CCC3CCN(c4ccc5c(c4)C(=O)N(C4CCC(=O)NC4=O)C5=O)CC3)CC2)CC1 (centres unmarked)	Dmax	> 90%

The measurements presented in this section are drawn from patent US12139492B2.
